pest or weed control at 125 g/ha listing for selected compounds.
System: Setaria faberi (SETFA)
Assay: Example A post-emergence herbicidal activity, glasshouse pot test
Type: in vivo
Settings: Rate 125 g/ha, evaluated 14 or 15 days later, read-out: Post-Emergence Activity SETFA (100=total damage to plant; 0=no damage to plant)
Method: Seeds of a variety of test species were sown in standard soil in pots. […] The test plants were then grown in a greenhouse under optimum conditions until, 14 or 15 days later for post-emergence and 19 or 20 days for pre-emergence, the test was evaluated (100=total damage to plant; 0=no damage to plant). […]
I only need the number, in %, no unit after it.

INSERT INTO measurements (compound, measurement_units, assay_result) VALUES
  ('CCc1csc(CC)c1C1C(=O)[C@@H]2[C@H](C1=O)[C@H]1CC[C@@H]2O1 (stereo partly drawn)', '%', 70),
  ('CCc1sc(-c2ccc(Cl)cc2)nc1C1C(=O)[C@@H]2[C@H](C1=O)[C@@]1(C)CC[C@]2(C)O1 (stereo partly drawn)', '%', 80),
  ('Cc1scc(Br)c1C1C(=O)[C@@H]2[C@H](C1=O)[C@H]1CC[C@@H]2O1 (stereo partly drawn)', '%', 40),
  ('Cc1sc(-c2ccc(Cl)cc2)cc1C1=C(OC(=O)C(C)(C)C)[C@@H]2[C@H](C1=O)[C@H]1CC[C@@H]2O1 (racemic) [Compound P1]', '%', 90),
  ('CCc1c(Br)sc(C)c1C1C(=O)[C@@H]2[C@H](C1=O)[C@H]1CC[C@@H]2O1 (stereo partly drawn)', '%', 80);

Let us move to another entry and its pest or weed control at 125 g/ha.
Query: So what's the measured pest or weed control at 125 g/ha for this one? Cc1sc(-c2ccccn2)cc1C1C(=O)[C@@H]2[C@H](C1=O)[C@H]1CC[C@@H]2O1 (stereo partly drawn)
Reply: 40

====

tested on: Alopecurus myosuroides (ALOMY); experiment: Example B pre-emergence herbicidal activity, glasshouse pot test; type: in vivo; conditions: 312 h, Rate 250 g/ha, evaluated after 13 days, read-out: Pre-Emergence Activity ALOMY (100=total damage to plant; 0=no damage to plant)
pest or weed control at 250 g/ha listing for selected compounds.
Write down the value, and be sure its unit follows.

Known results for compounds:
INSERT INTO measurements (compound, system, assay_result) VALUES
  ('CCc1sc(-c2ccc(SC)cc2)nc1C1C(=O)[C@@H]2[C@H](C1=O)[C@H]1CC[C@@H]2O1 (stereo partly drawn) [Compound T50]', 'Alopecurus myosuroides (ALOMY)', '40%'),
  ('Cc1sc(-c2ccc(OC(F)F)cc2)nc1C1C(=O)[C@@H]2[C@H](C1=O)[C@H]1CC[C@@H]2O1 (stereo partly drawn) [Compound T41]', 'Alopecurus myosuroides (ALOMY)', '100%'),
  ('Cc1sc(-c2ccc(OC(F)F)cc2Cl)nc1C1=C(OC(=O)C(C)(C)C)[C@@H]2[C@H](C1=O)[C@H]1CC[C@@H]2O1 (racemic) [Compound P9]', 'Alopecurus myosuroides (ALOMY)', '70%');

Query: So what's the measured pest or weed control at 250 g/ha for this one? CCc1sc(-c2ccc(Cl)cc2)nc1C1=C(OC(=O)C2CC2)[C@@H]2[C@H](C1=O)[C@H]1CC[C@@H]2O1 (racemic) [Compound P4]
Reply: 60%

Query: So what's the measured pest or weed control at 250 g/ha for this one? Cc1sc(-c2ccc(OC(F)F)cc2F)nc1C1C(=O)[C@@H]2[C@H](C1=O)[C@H]1CC[C@@H]2O1 (stereo partly drawn) [Compound T54]
Reply: 90%

Query: So what's the measured pest or weed control at 250 g/ha for this one? Cc1ccc(-c2nc(C3C(=O)[C@@H]4[C@H](C3=O)[C@H]3CC[C@@H]4O3)c(C)s2)cc1 (stereo partly drawn) [Compound T20]
Reply: 50%

Sourced from patent US8530667B2
